test system: Staphylococcus epidermidis; assay: Minimum inhibitory concentration was measured against staphylococcus epidermidis 222; format: functional

COMPOUND	MIC
N[C@@H](C(=O)N[C@@H]1C(=O)N2C(C(=O)O)=C(Cl)CC[C@H]12)c1ccccc1 [LORACARBEF ANHYDROUS]	2 µg/mL
N[C@@H](C(=O)N[C@@H]1C(=O)N2C(C(=O)O)=C(Cl)CS[C@H]12)c1ccccc1.O	2 µg/mL
CC(=O)N(O)CCC[C@H](NC(=O)[C@H](CCCN(O)C(C)=O)NC(=O)[C@@H](N)CCCN(O)C(C)=O)C(=O)N[C@@H](C(=O)NC1C(=O)N2C(C(=O)O)=C(Cl)CC[C@H]12)c1ccc(O)cc1 (some centres undefined)	> 128 µg/mL
CC(=O)N(O)CCC[C@H](NC(=O)[C@H](CCCN(O)C(C)=O)NC(=O)[C@@H](N)CCCN(O)C(C)=O)C(=O)N[C@@H](C(=O)NC1C(=O)N2C(C(=O)O)=C(Cl)CC[C@H]12)c1ccccc1 (some centres undefined)	> 128 µg/mL

FYI, the data here is from ChEMBL document CHEMBL1125647.
